pKd reference
Molecular target: GDP-bound KRAS wild-type protein (Homo sapiens)
Sequence (P01116 1-188 isoform P01116-2): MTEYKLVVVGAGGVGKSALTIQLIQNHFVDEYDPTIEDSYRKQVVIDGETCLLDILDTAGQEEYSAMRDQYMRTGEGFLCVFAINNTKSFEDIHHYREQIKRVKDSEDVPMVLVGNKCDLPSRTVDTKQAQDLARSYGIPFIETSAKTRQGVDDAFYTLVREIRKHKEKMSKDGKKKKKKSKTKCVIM
Experiment: Binding to KRAS by surface plasmon resonance (SPR), dissociation constant KD
Conditions: Single Cycle Kinetics
Scale note: pKd = -log10(concentration in M).

Here is how some compounds turned out for pKd.
CCO[C@@H]1C[C@H]2C(=O)NC3(CC(C)(C)C3)C(=O)N(C)[C@@H](C3CCCC3)C(=O)N(C)[C@H](C(=O)N(C)CC)CC(=O)N(C)[C@@H]([C@H](C)OC)C(=O)N[C@@H]([C@@H](C)CC)C(=O)N(C)CC(=O)N(C)[C@H]3C/C=C\CCN(C3=O)[C@@H](Cc3ccc(C)cc3)C(=O)N(C)CC(=O)N[C@@H](CCc3ccc(C(F)(F)F)c(Cl)c3)C(=O)N2C1	9.68
CCCN(C)C(=O)[C@@H]1CC(=O)N(C)[C@@H](CC(C)C)C(=O)N[C@@H]([C@@H](C)CC)C(=O)N2CCC[C@H]2C(=O)N(C)[C@H]2C/C=C\CCN(C2=O)[C@@H](Cc2ccc(C(F)(F)F)cc2)C(=O)N(C)CC(=O)N[C@@H](CCc2cc(F)c(C(F)(F)F)c(F)c2)C(=O)N2C[C@H](OCC)C[C@H]2C(=O)N[C@]2(C[C@@H](OC)C2)C(=O)N(C)[C@@H](C2CCCC2)C(=O)N1C	8.85

Inquiry: Which measured pKd value corresponds to CCCO[C@@H]1C[C@H]2C(=O)NC3(CC(C)(C)C3)C(=O)N(C)[C@@H](C3CCCC3)C(=O)N(C)[C@H](C(=O)N(C)CC)CC(=O)N(C)[C@@H](COCC)C(=O)N[C@@H]([C@@H](C)CC)C(=O)N3C[C@@H](F)C[C@H]3C(=O)N(C)[C@H]3C/C=C\CCN(C3=O)[C@@H](Cc3ccc(C)cc3)C(=O)N(C)CC(=O)N[C@@H](CCc3cc(F)c(C(F)(F)F)c(F)c3)C(=O)N2C1 ?
Reply text: 9.46

---

Molecular target: UniProtKB P01116
Test: Binding to KRAS by surface plasmon resonance (SPR), dissociation constant KD
Conditions: 1:1 binding model
Decide using Kd alone. Strictly below 0.6 nM: condition met. Equal to or above 0.6 nM: condition not met.

Please review the entries below; each comes with its answer.
CCO[C@@H]1C[C@H]2C(=O)NC3(CC(C)(C)C3)C(=O)N(C)[C@@H](C3CCCC3)C(=O)N(C)[C@H](C(=O)N(C)CC)CC(=O)N(C)[C@@H]([C@@H](C)OC)C(=O)N[C@@H]([C@@H](C)CC)C(=O)N3CCC[C@H]3C(=O)N(C)[C@H]3C/C=C\CCN(C3=O)[C@@H](Cc3ccc(C)cc3)C(=O)N(C)CC(=O)N[C@@H](CCc3ccc(C(F)(F)F)c(Cl)c3)C(=O)N2C1 [PP3192]	condition not met
CCC(CC)[C@H]1C(=O)N(C)[C@H](C(=O)N2CCCCC2)CC(=O)N(C)[C@@H](COC)C(=O)N[C@@H]([C@@H](C)CC)C(=O)N(C)CC(=O)N(C)[C@H]2C/C=C\CCN(C2=O)[C@@H](Cc2ccc(C(F)(F)F)cc2)C(=O)N(C)CC(=O)N[C@@H](CCc2cc(F)c(C(F)(F)F)c(F)c2)C(=O)N2C[C@H](OC(C)C)C[C@H]2C(=O)NC2(CC(C)(C)C2)C(=O)N1C [PP2608]	condition not met
CCC[C@H]1C(=O)N[C@@H]([C@@H](C)CC)C(=O)N(C)CC(=O)N(C)[C@H]2C/C=C\CCN(C2=O)[C@@H](Cc2ccc(C)cc2)C(=O)N(C)CC(=O)N[C@@H](CCc2cc(F)c(C(F)(F)F)c(F)c2)C(=O)N2C[C@H](OCC)C[C@H]2C(=O)NC2(CC(C)(C)C2)C(=O)N(C)[C@@H](CC(C)C)C(=O)N(C)[C@H](C(=O)N(C)C)CC(=O)N1C [PP2995]	condition met
CCC[C@H]1C(=O)N[C@@H]([C@@H](C)CC)C(=O)N(C2CC2)CC(=O)N(C)[C@H]2C/C=C\CCN(C2=O)[C@@H](Cc2ccc(C(F)(F)F)cc2)C(=O)N(C)CC(=O)N[C@@H](CCc2ccc(C(F)(F)F)c(OC)c2)C(=O)N2C[C@@H](C)C[C@H]2C(=O)N(C)C2(CCC2)C(=O)N(C)[C@@H](C2CCCC2)C(=O)N(C)[C@H](C(=O)N(C)C)CC(=O)N1C [PP2360]	condition met

# evaluate next
Inquiry: Does this molecule meet the criterion Kd < 0.6 nM? CCCO[C@H](C)[C@@H]1NC(=O)[C@H](CC(C)C)N(C)C(=O)C[C@@H](C(=O)N(C)C)N(C)C(=O)[C@H](C2CCCC2)N(C)C(=O)C2(CC(C)(C)C2)NC(=O)[C@@H]2C[C@H](C)CN2C(=O)[C@H](CCc2ccc(C(F)(F)F)c(OC)c2)NC(=O)CN(C)C(=O)[C@H](Cc2ccc(C)cc2)N2CC/C=C\C[C@@H](C2=O)N(C)C(=O)CN(C)C1=O [PP2415]
Reply text: condition met

---

Tested on: human lung cancer strain NCI-H441
Format: cell-based
Description: A test compound was dispensed into a U-bottom 384-well plate as 40 nL serially diluted dimethyl sulfoxide solutions using a liquid handler Echo (LABCYTE). […] This cell suspension was dispensed in an amount of 40 µL per well into a plate containing the test compound, and cultured at 37°C in a 5% carbon dioxide gas incubator. Four days later, 20 µL of CellTiter-Glo (registered trademark) (Promega) was added to each well and […] was measured. […]
Where a SMILES comes first, the peptide text is derived from it. Bridges are numbered along the chain shown (N, C = ends). [ ]: non-standard residue; d: D form. hPhe(3-Cl-4-CF3) = N[C@@H](CCc1ccc(C(F)(F)F)c(Cl)c1)C(=O)O; NPrPhe(4-CF3) = CCCN[C@@H](Cc1ccc(C(F)(F)F)cc1)C(=O)O; NMeGly(cPent) = CN[C@H](C(=O)O)C1CCCC1; Pro(4,4-F2) = O=C(O)[C@@H]1CC(F)(F)CN1; Hyp = O=C(O)[C@@H]1C[C@@H](O)CN1; NMeD = CN[C@@H](CC(=O)O)C(=O)O; NMeL = CN[C@@H](CC(C)C)C(=O)O; Ac4c = NC1(C(=O)O)CCC1; NEtG = CCNCC(=O)O; Sar = CNCC(=O)O
Readout: IC50
Answer with the figure and its unit, nothing else.

Here is how some molecules turned out for IC50.
C#CC[C@H]1C(=O)N[C@@H]([C@@H](C)CC)C(=O)N(C)CC(=O)N(C)[C@H]2C/C=C\CCN(C2=O)[C@@H](Cc2ccc(C(F)(F)F)cc2)C(=O)N(C)CC(=O)N[C@@H](CCc2cc(F)c(C(F)(F)F)c(F)c2)C(=O)N2C[C@@H](C)C[C@H]2C(=O)NC2(CC(C)(C)C2)C(=O)N(C)[C@@H](C2CCCC2)C(=O)N(C)[C@H](C(=O)N(C)CCC)CC(=O)N1C [PP2076]	15.6 nM
CC[C@H](C)[C@@H]1NC(=O)[C@H](CC2CC2)N(C)C(=O)C[C@@H](C(=O)N(C)C)N(C)C(=O)[C@H](C2CCCC2)N(C)C(=O)C2(CC(C)(C)C2)NC(=O)[C@@H]2C[C@@H](F)CN2C(=O)[C@H](CCc2cc(F)c(C(F)(F)F)c(F)c2)NC(=O)CN(C)C(=O)[C@H](Cc2ccc(C(F)(F)F)cc2)N2CC/C=C\C[C@@H](C2=O)N(C)C(=O)CN(C)C1=O [PP1501]	1.5 nM
CCCN1C(=O)CN(C)C(=O)CN(C)C(=O)[C@H]([C@@H](C)CC)NC(=O)[C@H](CC(C)C)N(C)C(=O)C[C@@H](C(=O)N(C)C)N(C)C(=O)[C@H](C2CCCC2)N(C)C(=O)C2(CCC2)NC(=O)[C@@H]2CC(F)(F)CN2C(=O)[C@H](CCc2ccc(C(F)(F)F)c(Cl)c2)NC(=O)CN(C)C(=O)[C@@H]1Cc1ccc(C(F)(F)F)cc1 [PP0414] ([NMeL]I[Sar][Sar][NPrPhe(4-CF3)][Sar][hPhe(3-Cl-4-CF3)][Pro(4,4-F2)][Ac4c][NMeGly(cPent)][NMeD]-NMe2; lactam N-11)	1.9 nM
CCCN1C(=O)CN(C)C(=O)CN(CC)C(=O)[C@H]([C@@H](C)CC)NC(=O)[C@H](CC(C)C)N(C)C(=O)C[C@@H](C(=O)N(C)C)NC(=O)[C@H](C2CCCC2)N(C)C(=O)C2(CCC2)NC(=O)[C@@H]2C[C@@H](OCC)CN2C(=O)[C@H](CCc2ccc(C(F)(F)F)c(Cl)c2)NC(=O)CN(C)C(=O)[C@@H]1Cc1ccc(C(F)(F)F)cc1 [PP0372] ([NMeL]I[NEtG][Sar][NPrPhe(4-CF3)][Sar][hPhe(3-Cl-4-CF3)][Hyp](Et)[Ac4c][NMeGly(cPent)]D-NMe2; lactam N-11)	34.2 nM

Let's switch to this molecule now.
Inquiry: Which measured IC50 value corresponds to CCO[C@@H]1C[C@H]2C(=O)NC3(CC(C)(C)C3)C(=O)N(C)[C@@H](C(CC)CC)C(=O)N(C)C(CC)CC(=O)N(C)[C@@H](CC)C(=O)N[C@@H]([C@@H](C)CC)C(=O)N(C)CC(=O)N(C)[C@H]3C/C=C\CCN(C3=O)[C@@H](Cc3ccc(C(F)(F)F)cc3)C(=O)N(C)CC(=O)N[C@@H](CCc3cc(F)c(C(F)(F)F)c(F)c3)C(=O)N2C1 (some centres unmarked) [PP1622] ?
Reply text: 28.1 nM
